Attribute: viability, T/C
- System: 186277-243-T-J2-PDC complex spheroid viability
- experiment: Anticancer human tumor 186277-243-T-J2-PDC patient-derived colon adenocarcinoma cell line growth inhibition [GQUAD]
- reported_conditions: second compound 0.316 µM; first compound 1 µM; stronger effect = lower value
- Description: DNA G-quadruplex Stabilizer Agents in Combinations in Complex Spheroids A high-throughput screen of multi-cell type tumor spheroids was designed to identify active combinations of DNA G-quadruplex stabilizer agents and targeted small molecules. […] Compounds. […] If the clinical Cmax for an agent had not been determined, the highest concentration tested was 10 microM. […]
measured_quantity: viability, T/C (%)

| molecule | target_entity | measure_unit | measured_result |
| --- | --- | --- | --- |
| CC(C)(O)C1CCC(Nc2ccc3ncc(-c4cccc(C(F)(F)F)c4)n3n2)CC1 (stereo not drawn) + Cc1[nH]c2ccc(F)cc2c1-c1nc2c3cccnc3c3ncccc3c2[nH]1 | 186277-243-T-J2-PDC complex spheroid viability | % | 91.8 |
| O=c1[nH]cc(F)c(=O)[nH]1 + Cc1[nH]c2ccc(F)cc2c1-c1nc2c3cccnc3c3ncccc3c2[nH]1 | 186277-243-T-J2-PDC complex spheroid viability | % | 124 |
| CC1COCCN1c1cc(-c2ccnn2C)c2ccnc(-c3ccn[nH]3)c2n1 (stereo not drawn) + Cc1cnc(CNC(=O)c2c(=O)c3ccc(N4CCCN(C)CC4)nc3n3c2sc2ccccc23)cn1 | 186277-243-T-J2-PDC complex spheroid viability | % | 10.3 |

====

- System: 186277-243-T-J2-PDC complex spheroid viability
- experiment: Anticancer human tumor 186277-243-T-J2-PDC cell line growth inhibition [GQUAD];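 further: spheroids exposed to drugs for 7 days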
- reported_conditions: curve of first compound; second compound 1 µM
pIC50: −log10 of the molar value.

| molecule | pIC50 |
| --- | --- |
| CC(=O)O[C@H]1C(=O)[C@@]2(C)[C@H]([C@H](OC(=O)c3ccccc3)[C@]3(O)C[C@H](OC(=O)[C@H](O)[C@@H](NC(=O)c4ccccc4)c4ccccc4)C(C)=C1C3(C)C)[C@]1(OC(C)=O)CO[C@@H]1C[C@@H]2O + CN(C)c1ccc(Nc2c3ccc(NC(=O)CCN4CCCC4)cc3nc3cc(NC(=O)CCN4CCCC4)ccc23)cc1 | > 7.50 |
| Cc1cccc(N(C)C(=O)C2C(O)CCN2c2nc(C)cc(C(F)(F)F)c2C#N)c1 (configuration not stated) + CN(C)c1ccc(Nc2c3ccc(NC(=O)CCN4CCCC4)cc3nc3cc(NC(=O)CCN4CCCC4)ccc23)cc1 | < 5.00 |
| Cc1[nH]c2ccccc2c1CCNCc1ccc(/C=C/C(=O)NO)cc1 + Cc1cnc(CNC(=O)c2c(=O)c3ccc(N4CCCN(C)CC4)nc3n3c2sc2ccccc23)cn1 | > 9.00 |
| Cc1[nH]c2ccccc2c1CCNCc1ccc(/C=C/C(=O)NO)cc1 + Cc1[nH]c2ccc(F)cc2c1-c1nc2c3cccnc3c3ncccc3c2[nH]1 | 7.38 |
| CCc1c2c(nc3ccc(O)cc13)-c1cc3c(c(=O)n1C2)COC(=O)[C@]3(O)CC + Cc1cnc(CNC(=O)c2c(=O)c3ccc(N4CCCN(C)CC4)nc3n3c2sc2ccccc23)cn1 | > 9.00 |
| CC(=O)O[C@H]1C(=O)[C@@]2(C)[C@H]([C@H](OC(=O)c3ccccc3)[C@]3(O)C[C@H](OC(=O)[C@H](O)[C@@H](NC(=O)c4ccccc4)c4ccccc4)C(C)=C1C3(C)C)[C@]1(OC(C)=O)CO[C@@H]1C[C@@H]2O + Cc1cnc(CNC(=O)c2c(=O)c3ccc(N4CCCN(C)CC4)nc3n3c2sc2ccccc23)cn1 | > 7.50 |
| COc1cc(C2c3cc4c(cc3C(OC3OC5COC(C)OC5C(O)C3O)C3COC(=O)C23)OCO4)cc(OC)c1O (configuration not stated) + Cc1[nH]c2ccc(F)cc2c1-c1nc2c3cccnc3c3ncccc3c2[nH]1 | 5.48 |

====

Attribute: log10 IC50
- Tested on: 186277-243-T-J2-PDC complex spheroid viability
- experiment: Anticancer human tumor 186277-243-T-J2-PDC cell line growth inhibition [GQUAD];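 further: spheroids exposed to drugs for 7 days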
- reported_conditions: curve of first compound; second compound 0.1 µM
measured_quantity: log10 IC50 (log10 of the value in µM)

| molecule | target_entity | log10 IC50 |
| --- | --- | --- |
| COc1ccc([C@@H](O)c2cc(-c3ncnc4cc(N5CCOCC5)ccc34)c(F)cc2Cl)nn1 + Cc1[nH]c2ccc(F)cc2c1-c1nc2c3cccnc3c3ncccc3c2[nH]1 | 186277-243-T-J2-PDC complex spheroid viability | 0.84 |
| O=C(NO)c1cnc(N2CCN(S(=O)(=O)c3ccc4ccccc4c3)CC2)nc1 + Cc1[nH]c2ccc(F)cc2c1-c1nc2c3cccnc3c3ncccc3c2[nH]1 | 186277-243-T-J2-PDC complex spheroid viability | -0.73 |
| COc1cc(C2c3cc4c(cc3C(OC3OC5COC(C)OC5C(O)C3O)C3COC(=O)C23)OCO4)cc(OC)c1O (stereo unspecified) + CN(C)c1ccc(Nc2c3ccc(NC(=O)CCN4CCCC4)cc3nc3cc(NC(=O)CCN4CCCC4)ccc23)cc1 | 186277-243-T-J2-PDC complex spheroid viability | -0.12 |
| COc1cc(C2c3cc4c(cc3C(OC3OC5COC(C)OC5C(O)C3O)C3COC(=O)C23)OCO4)cc(OC)c1O (stereo unspecified) + Cc1[nH]c2ccc(F)cc2c1-c1nc2c3cccnc3c3ncccc3c2[nH]1 | 186277-243-T-J2-PDC complex spheroid viability | 0.38 |
| CC(C)(O)C1CCC(Nc2ccc3ncc(-c4cccc(C(F)(F)F)c4)n3n2)CC1 (stereo unspecified) + Cc1[nH]c2ccc(F)cc2c1-c1nc2c3cccnc3c3ncccc3c2[nH]1 | 186277-243-T-J2-PDC complex spheroid viability | 0.58 |
| Cc1[nH]c2ccccc2c1CCNCc1ccc(/C=C/C(=O)NO)cc1 + CN(C)c1ccc(Nc2c3ccc(NC(=O)CCN4CCCC4)cc3nc3cc(NC(=O)CCN4CCCC4)ccc23)cc1 | 186277-243-T-J2-PDC complex spheroid viability | -1.25 |
| COc1ccc([C@@H](O)c2cc(-c3ncnc4cc(N5CCOCC5)ccc34)c(F)cc2Cl)nn1 + CN(C)c1ccc(Nc2c3ccc(NC(=O)CCN4CCCC4)cc3nc3cc(NC(=O)CCN4CCCC4)ccc23)cc1 | 186277-243-T-J2-PDC complex spheroid viability | 0.70 |
| CCCS(=O)(=O)Nc1ccc(F)c(C(=O)c2c[nH]c3ncc(-c4ccc(Cl)cc4)cc23)c1F + Cc1[nH]c2ccc(F)cc2c1-c1nc2c3cccnc3c3ncccc3c2[nH]1 | 186277-243-T-J2-PDC complex spheroid viability | 0.81 |
| CC(C)(O)C1CCC(Nc2ccc3ncc(-c4cccc(C(F)(F)F)c4)n3n2)CC1 (stereo unspecified) + CN(C)c1ccc(Nc2c3ccc(NC(=O)CCN4CCCC4)cc3nc3cc(NC(=O)CCN4CCCC4)ccc23)cc1 | 186277-243-T-J2-PDC complex spheroid viability | 0.61 |
| CC1COCCN1c1cc(C2(O)CC3CCC(C2)O3)c2cnn(-c3ccn[nH]3)c2n1 (stereo unspecified) + Cc1[nH]c2ccc(F)cc2c1-c1nc2c3cccnc3c3ncccc3c2[nH]1 | 186277-243-T-J2-PDC complex spheroid viability | -1.47 |
| CC1COCCN1c1cc(C2(S(C)(=N)=O)CC2)nc(-c2ccnc3[nH]ccc23)n1 (stereo unspecified) + Cc1[nH]c2ccc(F)cc2c1-c1nc2c3cccnc3c3ncccc3c2[nH]1 | 186277-243-T-J2-PDC complex spheroid viability | -0.08 |
| O=C(NO)c1cnc(N2CCN(S(=O)(=O)c3ccc4ccccc4c3)CC2)nc1 + Cc1cnc(CNC(=O)c2c(=O)c3ccc(N4CCCN(C)CC4)nc3n3c2sc2ccccc23)cn1 | 186277-243-T-J2-PDC complex spheroid viability | -0.99 |
| CC1COCCN1c1cc(C2(S(C)(=N)=O)CC2)nc(-c2ccnc3[nH]ccc23)n1 (stereo unspecified) + CN(C)c1ccc(Nc2c3ccc(NC(=O)CCN4CCCC4)cc3nc3cc(NC(=O)CCN4CCCC4)ccc23)cc1 | 186277-243-T-J2-PDC complex spheroid viability | -0.13 |
| Cc1[nH]c2ccccc2c1CCNCc1ccc(/C=C/C(=O)NO)cc1 + Cc1cnc(CNC(=O)c2c(=O)c3ccc(N4CCCN(C)CC4)nc3n3c2sc2ccccc23)cn1 | 186277-243-T-J2-PDC complex spheroid viability | -1.75 |
| CCCS(=O)(=O)Nc1ccc(F)c(C(=O)c2c[nH]c3ncc(-c4ccc(Cl)cc4)cc23)c1F + CN(C)c1ccc(Nc2c3ccc(NC(=O)CCN4CCCC4)cc3nc3cc(NC(=O)CCN4CCCC4)ccc23)cc1 | 186277-243-T-J2-PDC complex spheroid viability | 0.81 |
| CC(C)(O)C1CCC(Nc2ccc3ncc(-c4cccc(C(F)(F)F)c4)n3n2)CC1 (stereo unspecified) + Cc1cnc(CNC(=O)c2c(=O)c3ccc(N4CCCN(C)CC4)nc3n3c2sc2ccccc23)cn1 | 186277-243-T-J2-PDC complex spheroid viability | 0.22 |
